The following sequences are listed with their measured pI values.
assay: Isoelectric points of synthetic peptides; assay type: physicochemical

Example entries begin here.
SPCGGSWGRFMQGGLFGGRTDGCGAHRNRTSASLEPPSSDY [SNi34] : 8.25
RGSTGTAGGERSGVLNLHTRDNASGSGFKPWYPSNRGHK [Peptide 5PAX5] : 11.49
SARDSGPAEDGSRAVRLNGVENANTRKSSRSNPRGRRHP [Peptide P31] : 12.26
RVGQCTDSDVRRPWARSCAHQGCGAGTRNSHGCITRPLRQASAH [SNi10] : 10.45
RYKHDIGCDAGVDKKSSSVRGGCGAHSSPPRAGRGPRGTMVSRL [DCX8] : 11.03

Requested field: pI. Item: SQGSKQCMQYRTGRLTVGSEYGCGMNPARHATPAYPARLLPRYR [DCX11]
10.44

And STPPSREAYSRPYSVDSDSDTNAKHSSHNRRLRTRSRPN [PAX2] ?
11.26

And SDHALGTNLRSDNAKEPGDYNCCGNGNSTGRKVFNRRRPSAIPT [HAX42] ?
9.62

###

assay: Peptide stability in simulated intestinal fluid (SIF); type: in vitro ADME; details: simulated intestinal fluid (pancreatin), pH 7.5; 10,000 fold diluted SIF, 37° C.; read-out: Percent Remaining at: 1 m
Peptide text beside a SMILES is read from it. * marks the point of attachment. Dansyl = CN(C)c1cccc2c(S(=O)(=O)*)cccc12
Measure: remaining at 1 min, 1 mg/ml (%)
State just the number; it will be interpreted in %.

Requested field: remaining at 1 min, 1 mg/ml. Item: C[C@@H](O)[C@H](NC(=O)[C@@H](N)CCCCNS(=O)(=O)c1cccc2c(N(C)C)cccc12)C(=O)N[C@@H](CCCNC(=N)N)C(=O)N[C@@H](CCCCN)C(=O)N[C@@H](CO)C(=O)N[C@@H](CO)C(=O)N[C@@H](CCCNC(=N)N)C(=O)N[C@@H](CO)C(=O)N[C@@H](CC(N)=O)C(=O)N1CCC[C@H]1C(=O)N[C@@H](CCCNC(=N)N)C(=O)NCC(=O)N[C@@H](CCCNC(=N)N)C(=O)N[C@@H](CCCNC(=N)N)C(=O)N[C@@H](Cc1c[nH]cn1)C(=O)N1CCC[C@H]1C(=O)NCC(N)=O [ZElan031] (H-K(Dansyl)TRKSSRSNPRGRRHPG-NH2)
100

###

experiment: Peptide stability in simulated intestinal fluid (SIF); type: in vitro ADME; settings: simulated intestinal fluid (pancreatin), pH 7.5; 10,000 fold diluted SIF, 37° C.; read-out: Percent Remaining at: 24 h
Peptide text beside a SMILES is read from it. * marks the point of attachment. Dansyl = CN(C)c1cccc2c(S(=O)(=O)*)cccc12
Measure: remaining at 24 h, 1 mg/ml

Requested field: remaining at 24 h, 1 mg/ml. Item: C[C@@H](O)[C@H](NC(=O)[C@@H](N)CCCCNS(=O)(=O)c1cccc2c(N(C)C)cccc12)C(=O)N[C@@H](CCCNC(=N)N)C(=O)N[C@@H](CCCCN)C(=O)N[C@@H](CO)C(=O)N[C@@H](CO)C(=O)N[C@@H](CCCNC(=N)N)C(=O)N[C@@H](CO)C(=O)N[C@@H](CC(N)=O)C(=O)N1CCC[C@H]1C(=O)N[C@@H](CCCNC(=N)N)C(=O)NCC(=O)N[C@@H](CCCNC(=N)N)C(=O)N[C@@H](CCCNC(=N)N)C(=O)N[C@@H](Cc1c[nH]cn1)C(=O)N1CCC[C@H]1C(=O)NCC(N)=O [ZElan031] (H-K(Dansyl)TRKSSRSNPRGRRHPG-NH2)
0%

###

tested on: fixed Caco-2 cells; experiment: Inhibition of GST-peptide fusion binding to fixed Caco-2 cells by synthetic peptides; details: peptide from 100 μg/ml serially diluted; GST fusion 10 μg
* marks the point of attachment. Dansyl = CN(C)c1cccc2c(S(=O)(=O)*)cccc12
Measure: inhibition of GST-HAX42 binding

H-K(Dansyl)STPPSREAYSRPYSVDSDSDTNAKHSSHNRRLRTRSRPNG-NH2 [ZElan018] : inhibited
H-K(Dansyl)SRANTDGRKSRYSSPRRNSSTEPRLSPNSVHARYPSTDHD-NH2 [ZElan038, reference compound] : inhibited
H-K(Dansyl)SEANLDGRKSRYSSPRRNSSTRPRTSPNSVHARYPSTDHD-NH2 [ZElan026, reference compound] : inhibited

###

tested on: fixed Caco-2 or C2BBe1 cells; assay: ELISA of GST fusion proteins on fixed Caco-2 or C2BBe1 cells; type: binding
Measure: binding to fixed Caco-2 or C2BBe1 cells relative to GST control

gst-SDHALGTNLRSDNAKEPGDYNCCGNGNSTGRKVFNRRRPSAIPT [GST-HAX42] : weak to moderate binding
gst-RGSTGTAGGERSGVLNLHTRDNASGSGFKPWYPSNRGHK [GST-5PAX5] : weak to moderate binding
